// reported activation for each item listed
- assay_details: calcium rise in parental Ga16 cells – cell-based, fluorescence, CHO-Ga16 parental line, counter-screen for hTAAR1 agonist project (AID 651787);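 also: 0% = DMSO wells and 100% = maximal ATP response on the peak over basal ratio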
- conditions_used: Fluo-8 calcium fluorescence, at 3 µM, active compounds read high, normalized to maximal ATP response, DMSO zero
The whole screen tested about 2,400 compounds, of which about 1,200 (50%) were called active. So high a share suggests a set chosen from earlier hits. Not all results are given here.
// units = %; emit number, no label

Observe how each entry below is paired with its result.
COc1ccc(Br)cc1CNCCc1cccc(Cl)c1
17.7
Clc1ccc2nc3c(c(-c4ccccc4)c2c1)CNCC3
3.65
CCC(=NCCc1ccccc1)c1c(O)n(C2CCCCC2)c(=O)[nH]c1=O
4.36
CCCCC(=O)N/N=C/c1c(O)n(CC)c(=S)n(CC)c1=O
90.1
NCC(O)c1ccc(O)cc1 (configuration not stated)
1.74

Ask | State its activation for this molecule: CC(Cc1ccccc1)NC=O (configuration not stated)
Reply | 6.88

Ask | Specify activation for "O=C1NC(=O)N(Cc2ccco2)C(=O)/C1=C\c1ccc(-c2ccc(F)cc2)o1" and stop.
Reply | 21.1
